Values from ChEMBL document CHEMBL4610019

Catalogue of IC50 readings, one per entry.
# Tested on: CCD-841CoN
# TEST DESCRIPTION: Cytotoxicity against human CRL1790 cells assessed as inhibition of cell growth
# Assay type: cell-based
Form entry: value (µM) — number only.

Measured IC50, COc1ccc(/C=C2\CN(C(=O)C(Cl)Cl)C/C(=C\c3ccc(OC)cc3)C2=O)cc1 : 13.2

Measured IC50, O=C1/C(=C/c2ccc(Cl)cc2)CN(C(=O)C(Cl)Cl)C/C1=C\c1ccc(Cl)cc1 : 14.9

Measured IC50, O=C1/C(=C/c2ccccc2)CNC/C1=C\c1ccccc1 : 9.45

Measured IC50, O=C([O-])C(Cl)Cl.[Na+] [SODIUM DICHLOROACETATE] : 12.5

Measured IC50, COc1cc(/C=C2\CN(C(=O)C(Cl)Cl)C/C(=C\c3cc(OC)c(OC)c(OC)c3)C2=O)cc(OC)c1OC : 15.1

Measured IC50, O=C1/C(=C/c2ccccc2F)CN(C(=O)C(Cl)Cl)C/C1=C\c1ccccc1F : 11

Measured IC50, O=C1/C(=C/c2ccc3c(c2)OCO3)CN(C(=O)C(Cl)Cl)C/C1=C\c1ccc2c(c1)OCO2 : 21.1

Measured IC50, O=C1/C(=C/c2ccccc2)CN(C(=O)C(Cl)Cl)C/C1=C\c1ccccc1 : 12.5

Measured IC50, COc1ccc(/C=C2\CN(C(=O)C(Cl)Cl)C/C(=C\c3ccc(OC)c(OC)c3)C2=O)cc1OC : 10.6

Measured IC50, O=C1/C(=C/c2ccc(F)c(F)c2)CN(C(=O)C(Cl)Cl)C/C1=C\c1ccc(F)c(F)c1 : 11.1

Measured IC50, O=C1/C(=C/c2ccc(F)cc2)CN(C(=O)C(Cl)Cl)C/C1=C\c1ccc(F)cc1 : 14.6

Measured IC50, O=c1[nH]cc(F)c(=O)[nH]1 [FLUOROURACIL] : 18.7

Measured IC50, CC(=O)N1C/C(=C\c2ccccc2)C(=O)/C(=C/c2ccccc2)C1 : 20.8

Measured IC50, Cc1ccc(/C=C2\CN(C(=O)C(Cl)Cl)C/C(=C\c3ccc(C)cc3)C2=O)cc1 : 16.2

Measured IC50, CC(C)(C)C(=O)N1C/C(=C\c2ccc(OC(=O)C(Cl)Cl)cc2)C(=O)/C(=C/c2ccc(OC(=O)C(Cl)Cl)cc2)C1 : 16.4

Measured IC50, O=C1/C(=C/c2cccc(F)c2)CN(C(=O)C(Cl)Cl)C/C1=C\c1cccc(F)c1 : 14.8

Measured IC50, CN(C)c1ccc(/C=C2\CN(C(=O)C(Cl)Cl)C/C(=C\c3ccc(N(C)C)cc3)C2=O)cc1 : 9.12

Measured IC50, O=C1/C(=C/c2ccc([N+](=O)[O-])cc2)CN(C(=O)C(Cl)Cl)C/C1=C\c1ccc([N+](=O)[O-])cc1 : 11.1

Measured IC50, O=C1/C(=C/c2ccc(Cl)c(Cl)c2)CN(C(=O)C(Cl)Cl)C/C1=C\c1ccc(Cl)c(Cl)c1 : 12.2

Measured IC50, O=C1/C(=C/c2ccc(O)cc2)CN(C(=O)C(Cl)Cl)C/C1=C\c1ccc(O)cc1 : 13.8
